All figures here come from PubChem BioAssay (NCI).

- Test system: TK-10 renal
- protocol_notes: NCI tumour cell line growth inhibition, 48 h
Recorded GI50 values for a group of compounds are listed next.
assay_endpoint: GI50

• CCN(CC)CCNC(=O)c1cccc2c1-c1ccccc1C2=O = > 100 µM
• COC(=O)[C@]12CC[C@@H](C)[C@H](C)[C@@H]1C1=CC[C@@H]3[C@@]4(C)C(C=O)=C[C@@](C)(CO)[C@@H]4[C@H](O)C[C@@]3(C)[C@]1(C)CC2 = 2.49 µM
• Nc1ccccc1C#C/C=C\C#Cc1ccccc1C#CCO = 11.8 µM
• O=C(Oc1ccccc1)N(c1ccccc1)c1ccccc1 = 37.1 µM
• Cc1ccc(C[As+](c2ccccc2)(c2ccccc2)c2ccccc2)cc1 = 2.01 µM
• CC12OC(CC(O)C1O)n1c3ccccc3c3c4c(c5c6ccccc6n2c5c31)C(=O)N(CCN1CCOCC1)C4=O (stereo unspecified) = 0.953 µM
• C#C[C@@]1(O)[C@@H](CO)O[C@@H](n2cc(Br)c3c(Cl)ccnc32)[C@@H]1O = > 67 µM
• CC1=CC(=O)N(c2cccc3c(N4C(=O)C=C(C)C4=O)cccc23)C1=O = 3.1 µM
• O=C1C=C(NCCO)c2nccc3c2c1nc1ccccc13 = 18.7 µM
• C=CCn1c2ccccc2c2c3c(c4c5ccccc5n(CC=C)c4c21)C(=O)N(O)C3=O = 6.16 µM
• Cc1ccc(N)cc1[As]=[As]c1cc(N)ccc1C (stereo unspecified) = 1.47 µM

###

- Test system: SK-MEL-2 melanoma
- protocol_notes: NCI tumour cell line growth inhibition, 48 h
assay_endpoint: TGI (µM)

- CC(C)c1oc(=O)cc2c1C(O)C1OC(=O)C3(C)C(O)C4OC4C2(C)C13 (stereo not given): 7.71
- C/C=C/c1cc2c(cc1O)CC[C@@H]1[C@@H]2CC[C@]2(C)[C@@H](O)CC[C@@H]12: 16.7

###

Recorded TGI values for a group of compounds are listed next.
- Test system: M14 melanoma
- protocol_notes: NCI tumour cell line growth inhibition, 48 h
Where a SMILES comes first, the peptide text is derived from it. [ ]: non-standard residue; d: D form. ΔPro = O=C(O)[CH]1C=CCN1
assay_endpoint: TGI

- C/C=C/c1cc2c(cc1O)CC[C@@H]1[C@@H]2CC[C@]2(C)[C@@H](O)CC[C@@H]12: 4.05 µM
- O=C(c1cscc1CCc1ccccc1)c1cscc1CCc1ccccc1: > 100 µM
- O=C(O)c1ccc2c(c1)C(=O)N(c1ccc(S(=O)(=O)c3ccc(N4C(=O)c5ccc(C(=O)O)cc5C4=O)cc3)cc1)C2=O: > 100 µM
- O=S1SC(=S)C2C=CC=NC21 (centres undefined): 29.6 µM
- O=C(O)C1C=CCN1C(=O)C1C=CCN1C(=O)C1C=CCN1 (centres undefined) (H-[ΔPro]-[ΔPro]-[ΔPro]-OH; configuration not given here): > 100 µM
- C=C(C)C1CC[C@@](C)(O)[C@H](C#N)C1 (some centres undefined): > 100 µM
- Cc1sc(C(=O)c2cncnc2N[C@@H]2C[C@H](COS(N)(=O)=O)[C@@H](O)C2)cc1[C@@H]1NCCc2ccc(Cl)cc21: 21.6 µM
- c1ccc(-c2[nH]ncc2-c2ccnc(-c3ccc(OCCN4CCOCC4)cc3)c2)nc1: > 25 µM
- O/N=C(\CC(O)(C(F)(F)F)C(F)(F)F)c1cccs1: > 10 µM

###

- System: A549 NSCLC
- protocol_notes: NCI tumour cell line growth inhibition, 48 h
assay_endpoint: GI50

• C#C[C@@]1(O)[C@@H](CO)O[C@@H](n2cc(Br)c3c(Cl)ccnc32)[C@@H]1O = 7.01 µM
• Nc1[nH]nc2nc(-c3cc(Cl)ccc3Cl)cc(-c3ccc(F)cc3)c12 = 22.9 µM
• COc1cc(C(=O)/C=C/c2cc(-c3ccc4c(c3)OCO4)n[nH]2)cc(OC)c1OC = 2.13 µM
• O=C(Oc1ccccc1)N(c1ccccc1)c1ccccc1 = 26.2 µM

###

- System: ACHN renal
- protocol_notes: NCI tumour cell line growth inhibition, 48 h
assay_endpoint: TGI

• CCOP(=O)(C/C=C/Cn1ncc(=O)[nH]c1=O)OCC = > 100 µM
• COc1ccc(CN2C(=O)[C@@H]3Cc4c(OC)c(C)c(OC)c(OC)c4[C@H](/C2=C\c2cc(OC)c(OC)c(C)c2OC)N3C(=O)OC(C)C)cc1 = > 100 µM
• C[P+]1(Cc2ccccc2)CCCC1 = > 100 µM
• CCc1n[nH]c(=O)n1CC = > 100 µM
• O=Cc1cn(CCCCCCCCn2cc(C=O)c3ccccc32)c2ccccc12 = > 10 µM
• CC1(C)CC[C@]2(C(=O)O)CC[C@]3(C)C(=CCC4=C5C[C@H](O)[C@H](O)[C@@](C)(CO)[C@@]5(C)CC[C@]43C)[C@@H]2C1 = > 100 µM

###

- Tested on: SK-MEL-5 melanoma
- protocol_notes: NCI tumour cell line growth inhibition, 48 h
Recorded TGI values for a group of molecules are listed next.
assay_endpoint: TGI

* C/C(=C\COP(=O)(O)OP(=O)(O)O)CCCCCCOCc1ccccc1 | > 100 µM
* [N-]=[N+]=NC1C(O)C(CO)OC1n1ccc(N)nc1=O (stereo not given) | > 625 µM
* CC1=CC(=O)N(c2cccc3c(N4C(=O)C=C(C)C4=O)cccc23)C1=O | 36.3 µM
* O=C(OCc1ccccc1)C(Cc1ccc(OCc2ccccc2)cn1)NC(=O)C(F)(F)F (stereo not given) | > 100 µM
* CCOc1cc(-c2nncn2C)ccc1Nc1ncc2cc(C)nc(NCC(C)(C)C)c2n1 | > 100 µM
* CC1=NN(c2ccc(S(=O)(=O)O)cc2)C2(C1)C(Cl)C(=O)N2c1nc2ccccc2s1 (stereo not given) | > 100 µM
* C/C=C(\N=C=S)C(=O)OC1C(COC(C)=O)OC([C@]2(O)CC(=O)C(=N)C(C(=O)O)=C2O)C(O)C1OC1CC(OC)C(O)([C@@H](C)OC(=O)[C@@H](C)CC)C(C)O1 (stereo not given in full) | 28.6 µM
* CN1CCN(c2cc3nc(-c4ccc(Cl)cc4)[nH]c3cc2F)CC1 | 35.5 µM
* CC1(C)OCC(CO)(CO)CO1 | > 100 µM
* CN1CCN(CCCNC(=O)c2c3c(n4ccccc24)C(=O)c2ncccc2C3=O)CC1 | 1.54 µM

###

- System: NCI-H226 lung
- protocol_notes: NCI tumour cell line growth inhibition, 48 h
Recorded GI50 values for a group of compounds are listed next.
assay_endpoint: GI50

* CN1CCC2(CC1)N=C(SCC(=O)Nc1cnc3ccccc3c1)C(c1ccc(Br)cc1)=N2 | 10.4 µM
* Oc1ccc2c(=S)cc(-c3ccc(Br)cc3)oc2c1O | 7.22 µM
* CCN1CCN(c2nc(C)cc(NCc3cc(Nc4ccnc5cc(Cl)ccc45)ccc3F)n2)CC1 | 2.82 µM
* COc1ccc(Cn2cc(COc3cc(/C=C/C(=O)c4cc(OC)c(OC)c(OC)c4)ccc3OC)nn2)cc1 | 2.91 µM
* CC[C@@H](C)/C=C(C)/C=C/C(=O)c1c(O)c(-c2ccc(OC(=O)[C@@]34CC[C@@](C)(C(=O)O3)C4(C)C)cc2)cn(O)c1=O | 1.39 µM
* Cc1ccc(N)cc1[As]=[As]c1cc(N)ccc1C (stereo not given) | 1.57 µM
* CC12OC(CC(O)C1O)n1c3ccccc3c3c4c(c5c6ccccc6n2c5c31)C(=O)N(CCN1CCOCC1)C4=O (stereo not given) | 1.11 µM
* C=C1C(=O)O[C@H]2[C@H]1CC/C(COC(=O)c1cccnc1N)=C\CC[C@@]1(C)O[C@@H]21 | 10.1 µM
* Cc1ccc(C[As+](c2ccccc2)(c2ccccc2)c2ccccc2)cc1 | 1.64 µM
* CCN(CC)CCNC(=O)c1cccc2c1-c1ccccc1C2=O | > 100 µM

###

Recorded TGI values for a group of molecules are listed next.
- System: HOP-18 NSCLC
- protocol_notes: NCI tumour cell line growth inhibition, 48 h
Where a SMILES comes first, the peptide text is derived from it. [ ]: non-standard residue; d: D form. The star is where a group is joined. ξ: configuration not given here. ξNMeF = CNC(Cc1ccccc1)C(=O)O; NMeV = CN[C@H](C(=O)O)C(C)C; Boc = CC(C)(C)OC(=O)*; OBn = c1ccc(CO*)cc1
assay_endpoint: TGI

• CN(C)NC1=C([N+](=O)[O-])C=NN(c2ccccc2)C1 = 3.25 µM
• O=C(NN1C(=O)CS(=O)(=O)C1c1ccc(Cl)c(Cl)c1)c1ccncc1 (centres undefined) = > 100 µM
• CC1(C)C(=O)OC(n2cc(F)c(=O)[nH]c2=O)C1=O (centres undefined) = > 100 µM
• Cc1cccc(NC(=O)C(=O)C(C2OC(=O)c3ccccc32)[N+](=O)[O-])c1C (centres undefined) = 22.3 µM
• CC(=O)[CH-]C(=O)c1ccccc1.CC(=O)[CH-]C(=O)c1ccccc1.Cl.[O-]c1ccnc2ccccc12.[O-]c1ccnc2ccccc12.[Ti+4] = > 100 µM
• CC(C)[C@@H](C(=O)N(C)[C@H](C(=O)N1CCC[C@H]1C(=O)OCc1ccccc1)C(C)C)N(C)C(=O)C(Cc1ccccc1)N(C)C(=O)[C@H](NC(=O)OC(C)(C)C)C(C)C (some centres undefined) (Boc-[dV][ξNMeF][NMeV][NMeV]P-OBn) = > 100 µM
• O=C(NC1CC1)c1c(O)[nH]c(=S)[nH]c1=O = > 100 µM
• CN(C)[C@@H]1C(=O)C(C(=O)NCNc2nc3n[nH]nc3c(=O)[nH]2)=C(O)[C@@]2(O)C(=O)C3=C(O)c4c(O)cccc4[C@@](C)(O)[C@H]3C[C@@H]12 = > 100 µM
• CCOC(=O)C1=C(OC(OCC)C([Se]c2ccccc2)C(C)C)CCC1 (centres undefined) = 41.3 µM
• CC1(C)c2ccccc2N2C(c3ccccc3)=NOC21C (centres undefined) = > 100 µM
• CCOC(=O)c1cc(=O)n(C)c(=O)n1C = > 100 µM
• C/C=C(\N=C=S)C(=O)OC1C(COC(C)=O)OC([C@]2(O)CC(=O)C(=N)C(C(=O)O)=C2O)C(O)C1OC1CC(OC)C(O)([C@@H](C)OC(=O)[C@@H](C)CC)C(C)O1 (some centres undefined) = 30.4 µM
• COC(=O)C1=CC2C(=O)OC1C1C(=O)NC(=O)C21 (centres undefined) = > 100 µM
• CN(C)NC(=O)/C(=C/c1ccc(Cl)cc1)NC(=O)c1ccccc1 = > 100 µM
• O=C(O)CCC(NC(=O)c1ccc(Nc2cnc3cc(C(F)(F)F)ccc3n2)cc1)C(=O)O (centres undefined) = > 100 µM
• Cc1cc(=O)oc2c1cc1ccc3cccc4ccc2c1c34 = > 100 µM
• Cc1ccc(Nc2cccc3c2C(=O)c2cccc(Nc4ccc(C)cc4S(=O)(=O)O)c2C3=O)c(S(=O)(=O)O)c1 = > 100 µM
• O=C(/C=C/c1ccc(Cl)c(Cl)c1)c1ccccc1Cl = 25.3 µM
• COc1ccc2c(c1)CCc1c-2[nH]c2cc3c(cc2c1=O)OCO3 = > 100 µM
